Source listed as patent EP4741386A1.

Item-by-item account of pIC50
Target: Recombinant human His6-USP1/His6-UAF1 complex protein (Homo sapiens, UniProt O94782)
Construct: His6; purchased R&D E-568-050
Sequence (O94782 whole entry): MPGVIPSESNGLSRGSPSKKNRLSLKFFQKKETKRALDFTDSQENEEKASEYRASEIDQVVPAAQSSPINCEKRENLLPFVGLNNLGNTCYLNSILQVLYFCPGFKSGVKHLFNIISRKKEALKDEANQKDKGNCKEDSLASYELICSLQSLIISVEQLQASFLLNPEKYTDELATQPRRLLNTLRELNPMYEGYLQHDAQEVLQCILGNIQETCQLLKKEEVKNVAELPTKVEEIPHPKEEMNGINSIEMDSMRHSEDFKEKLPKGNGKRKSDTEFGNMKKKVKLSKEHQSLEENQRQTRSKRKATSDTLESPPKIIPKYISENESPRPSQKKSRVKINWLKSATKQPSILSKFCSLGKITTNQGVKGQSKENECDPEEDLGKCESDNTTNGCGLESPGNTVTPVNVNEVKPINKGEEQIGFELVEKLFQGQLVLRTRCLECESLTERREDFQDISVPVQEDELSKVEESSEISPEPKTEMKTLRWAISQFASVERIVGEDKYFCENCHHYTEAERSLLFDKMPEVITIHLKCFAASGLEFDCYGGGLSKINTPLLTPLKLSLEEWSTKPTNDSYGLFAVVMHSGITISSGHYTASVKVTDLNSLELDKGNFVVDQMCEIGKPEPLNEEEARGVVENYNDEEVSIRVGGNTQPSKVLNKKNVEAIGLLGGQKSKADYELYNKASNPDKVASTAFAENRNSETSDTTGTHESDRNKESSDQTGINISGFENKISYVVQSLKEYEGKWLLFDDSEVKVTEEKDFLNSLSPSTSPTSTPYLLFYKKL
Sequence (Q8TAF3 whole entry partner): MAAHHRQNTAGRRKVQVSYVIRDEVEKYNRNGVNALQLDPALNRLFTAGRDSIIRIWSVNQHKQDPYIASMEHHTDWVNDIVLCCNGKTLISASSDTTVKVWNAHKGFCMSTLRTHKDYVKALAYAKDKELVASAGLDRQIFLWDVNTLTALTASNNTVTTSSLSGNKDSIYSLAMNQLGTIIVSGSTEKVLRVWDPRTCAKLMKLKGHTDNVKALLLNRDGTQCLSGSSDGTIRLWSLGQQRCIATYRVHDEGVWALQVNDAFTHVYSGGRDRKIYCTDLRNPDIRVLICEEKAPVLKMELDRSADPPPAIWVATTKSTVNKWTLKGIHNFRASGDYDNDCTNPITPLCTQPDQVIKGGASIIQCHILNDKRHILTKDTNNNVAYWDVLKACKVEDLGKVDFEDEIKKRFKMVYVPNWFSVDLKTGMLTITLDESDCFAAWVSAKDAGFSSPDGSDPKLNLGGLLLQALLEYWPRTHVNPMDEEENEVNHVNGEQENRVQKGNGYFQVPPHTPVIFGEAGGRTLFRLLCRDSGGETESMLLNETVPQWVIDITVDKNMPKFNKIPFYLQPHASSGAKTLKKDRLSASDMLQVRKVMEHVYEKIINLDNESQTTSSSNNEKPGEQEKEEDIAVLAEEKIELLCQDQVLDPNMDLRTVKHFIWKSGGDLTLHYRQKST
Experiment: In vitro inhibitory activity against USP1 (Ubiquitin Rhodamine 110 fluorescence detection, 384-well plate)
Format: biochemical
Conditions: Ub-Rho substrate, 1 hour pre-incubation, read after 30 minutes
pIC50: −log10 of the molar value.
Measurement label: pIC50

Molecule | Result number
COc1cnc(-c2ccccc2C(C)C)nc1NCc1ccc(-c2nc(C(F)(F)F)cn2C)cc1 | 8.92
COc1ncnc(C2CC2)c1-c1nc(NCc2ccc(-n3nc(C(F)(F)F)cc3C)cc2)c2occc2n1 | 8.28
Cc1noc(C(C)C)c1-c1nc(NCc2ccc(-c3ccccn3)cc2)c2occc2n1 | 7.80
COc1cnc(-c2ccccc2C(C)C)nc1N(C)CC1CCC(c2ccccn2)CC1 (stereo not drawn) | 7.96
COc1cnc(-c2c(C)noc2C(C)C)nc1NCc1ccc(-c2nc(C(F)(F)F)cn2C)cc1 | 7.82
COc1cnc(-c2c(OC)ncnc2C2CC2)nc1N(C)CC12CCC(c3nc(C(F)(F)F)cn3C)(CC1)OC2 [Example S10] | 7.72
